- Test system: Hep G2 cells
- protocol summary: CCK-8 anti-proliferative assay, Hep G2
- Assay type: cell-based, human
- conditions: Homo sapiens, HepG2; Table 8; co-incubated 48 h; read-out: Anti-proliferative activity (IC50 ± standard deviation) Hep G2
Doc: threshold 7 µM (exclusive). Items with IC50 beneath it return 1; others return -1.

# TODO verify IC50 < 7 µM strictly for this compound: COc1cc2ncnc(NCc3cccc(NC(=O)Nc4cc(C(F)(F)F)cc(C(F)(F)F)c4)c3)c2cc1OCCCCCCN1CCN(CCN2CCOCC2)CC1 [Compound 8-1s]
1

# TODO verify IC50 < 7 µM strictly for this compound: COc1cc2ncnc(NCc3cccc(NC(=O)Nc4ccc(F)cc4)c3)c2cc1OCCCCCCN1CCN(CCN2CCOCC2)CC1 [Compound 8-1l]
-1

# TODO verify IC50 < 7 µM strictly for this compound: COc1cc2ncnc(NCc3cccc(NC(=O)NC4CCCCC4)c3)c2cc1OCCCCCCN1CCN(CCN2CCOCC2)CC1 [Compound 8-1v]
-1

# TODO verify IC50 < 7 µM strictly for this compound: COc1cc2ncnc(NCc3cccc(NC(=O)Nc4ccc(C(C)(C)C)cc4)c3)c2cc1OCCCCCCN1CCN(CCN2CCOCC2)CC1 [Compound 8-1j]
1

###

- Tested on: MG-63 cells
- protocol summary: CCK-8 anti-proliferative assay, MG-63
- Type: cell-based, human
- conditions: Table 7; co-incubated 48 h; read-out: Anti-proliferative activity (IC50 ± standard deviation) MG-63
assay readout: IC50 (µM)
A number alone suffices; assume µM.

The reported IC50 of the compound COc1cc2ncnc(NCc3cccc(NC(=O)Nc4ccccc4)c3)c2cc1OCCCCCCN1CCN(CCN2CCOCC2)CC1 was 27.3

###

- Tested on: embryonic lung fibroblasts (WI-38)
- protocol summary: CCK-8 anti-proliferative assay, normal cells WI-38
- Assay type: cell-based, human
- conditions: Table 9, co-incubated 48 h, read-out: Anti-proliferative activity (IC50 ± standard deviation) WI-38
assay readout: IC50 (µM)
A number alone suffices; assume µM.

Here COc1cc2ncnc(NCc3cccc(NC(=O)Nc4ccccc4)c3)c2cc1OCCCCCCN1CCN(CCN2CCOCC2)CC1 was tested on embryonic lung fibroblasts (WI-38), and its IC50 came to 25.9

###

Consider the following compounds; for each one, report its IC50.
- Tested on: A549 cells
- protocol summary: CCK-8 anti-proliferative assay, A549
- Type: cell-based, human
- conditions: Table 16; comparative compounds 8-1 to 8-23; co-incubated 48 h; read-out: Anti-proliferative activity (IC50 ± standard deviation) A549
A number alone suffices; assume µM.

The reported IC50 of the compound COc1ccc(NC(=O)Nc2cccc(CNc3ncnc4cc(OC)c(OCCCCCCN5CCC(CN6CCN(c7ccccn7)CC6)CC5)cc34)c2)cc1 [Compound 8-21, reference compound] was 11.9

The reported IC50 of the compound COc1cc2ncnc(NCc3cccc(NC(=O)Nc4ccccc4Cl)c3)c2cc1OCCCCCCN1CCC(CN2CCN(c3ccccn3)CC2)CC1 [Compound 8-20, reference compound] was 22.4

###

- Test system: 5637 cells
- protocol summary: CCK-8 anti-proliferative assay, 5637
- Format: cell-based, human
- conditions: Homo sapiens; Table 10; co-incubated 48 h; read-out: Anti-proliferative activity (IC50 ± standard deviation) 5637
Doc: threshold 6 µM (exclusive). Items with IC50 beneath it return 1; others return 0.

# TODO verify IC50 < 6 µM strictly for this molecule: COc1cc2ncnc(NCc3cccc(NC(=O)Nc4ccc(Cl)cc4)c3)c2cc1OCCCCCCN1CCC(CN2CCN(c3ccccn3)CC2)CC1 [Compound 8-2q]
1

# TODO verify IC50 < 6 µM strictly for this molecule: COc1cc2ncnc(NCc3cccc(NC(=O)Nc4ccc(C)cc4C)c3)c2cc1OCCCCCCN1CCC(CN2CCN(c3ccccn3)CC2)CC1 [Compound 8-2e]
1

# TODO verify IC50 < 6 µM strictly for this molecule: COc1cc2ncnc(NCc3cccc(NC(=O)Nc4cccc(C)c4)c3)c2cc1OCCCCCCN1CCC(CN2CCN(c3ccccn3)CC2)CC1 [Compound 8-2c]
0

# TODO verify IC50 < 6 µM strictly for this molecule: CCc1cccc(CC)c1NC(=O)Nc1cccc(CNc2ncnc3cc(OC)c(OCCCCCCN4CCC(CN5CCN(c6ccccn6)CC5)CC4)cc23)c1 [Compound 8-2h]
1

# TODO verify IC50 < 6 µM strictly for this molecule: COc1cc2ncnc(NCc3cccc(NC(=O)Nc4cc(C)cc(C)c4)c3)c2cc1OCCCCCCN1CCC(CN2CCN(c3ccccn3)CC2)CC1 [Compound 8-2f]
0

# TODO verify IC50 < 6 µM strictly for this molecule: COc1cc2ncnc(NCc3cccc(NC(=O)Nc4ccc(Cl)c(C(F)(F)F)c4)c3)c2cc1OCCCCCCN1CCC(CN2CCN(c3ccccn3)CC2)CC1 [Compound 8-2v]
0

# TODO verify IC50 < 6 µM strictly for this molecule: COc1cc2ncnc(NCc3cccc(NC(=O)Nc4cc(C(F)(F)F)cc(C(F)(F)F)c4)c3)c2cc1OCCCCCCN1CCC(CN2CCN(c3ccccn3)CC2)CC1 [Compound 8-2w]
0

# TODO verify IC50 < 6 µM strictly for this molecule: COc1cc2ncnc(NCc3cccc(NC(=O)Nc4ccc(Cl)cc4Cl)c3)c2cc1OCCCCCCN1CCC(CN2CCN(c3ccccn3)CC2)CC1 [Compound 8-2r]
0

# TODO verify IC50 < 6 µM strictly for this molecule: COc1cc2ncnc(NCc3cccc(NC(=O)Nc4ccc(C(C)(C)C)cc4)c3)c2cc1OCCCCCCN1CCC(CN2CCN(c3ccccn3)CC2)CC1 [Compound 8-2j]
1

# TODO verify IC50 < 6 µM strictly for this molecule: COc1cc2ncnc(NCc3cccc(NC(=O)Nc4ccc(F)cc4)c3)c2cc1OCCCCCCN1CCC(CN2CCN(c3ccccn3)CC2)CC1 [Compound 8-2n]
0

# TODO verify IC50 < 6 µM strictly for this molecule: COc1cc2ncnc(NCc3cccc(NC(=O)Nc4ccc(C)cc4)c3)c2cc1OCCCCCCN1CCC(CN2CCN(c3ccccn3)CC2)CC1 [Compound 8-2d]
0

# TODO verify IC50 < 6 µM strictly for this molecule: COc1cc2ncnc(NCc3cccc(NC(=O)Nc4ccc(C(F)(F)F)cc4)c3)c2cc1OCCCCCCN1CCC(CN2CCN(c3ccccn3)CC2)CC1 [Compound 8-2t]
0

The reported measurements were obtained from patent US20260285816A1.
